Biological target: biotinylated labeled human GPC3 protein (produced in-house) (human, UniProt P51654 25-559, limits assumed, biotinylated (Dojindo, Cat. No. LK03); sites not stated)
Assay: ELISA, biotinylated human GPC3 protein
Assay Metric: OD450 at 0.53 nM (OD450)
Please respond with the number in OD450 and leave the unit unwritten.

Example cases with answers are listed next.
OD450 at 0.53 nM lookup needed for hAb003LH1L1 (antibody, human IgG1, V domains shown, Humanized F2.154.1; VH H1 + VL L1; expressed as human IgG1) VH: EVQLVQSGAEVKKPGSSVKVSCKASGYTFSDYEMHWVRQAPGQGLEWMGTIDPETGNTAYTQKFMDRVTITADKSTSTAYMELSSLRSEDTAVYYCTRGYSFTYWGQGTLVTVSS VL: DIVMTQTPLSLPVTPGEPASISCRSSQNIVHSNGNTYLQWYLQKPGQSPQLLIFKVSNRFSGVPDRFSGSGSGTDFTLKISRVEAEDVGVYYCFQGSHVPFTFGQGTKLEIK , thanks.
2.5

Quick check: OD450 at 0.53 nM of hAb007LH3L1b (antibody, human IgG1, V domains shown, Humanized F3.81.19; VH H3 + VL L1b; expressed as human IgG1) VH: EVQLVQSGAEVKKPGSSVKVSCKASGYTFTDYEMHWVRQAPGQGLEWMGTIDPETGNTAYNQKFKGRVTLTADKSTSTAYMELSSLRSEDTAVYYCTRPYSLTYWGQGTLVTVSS VL: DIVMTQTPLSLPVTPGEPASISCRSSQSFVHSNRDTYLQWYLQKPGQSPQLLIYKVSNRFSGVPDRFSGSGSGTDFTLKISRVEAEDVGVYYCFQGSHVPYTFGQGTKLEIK ?
1.8

--- query ---
What OD450 at 0.53 nM value was documented for this binder, hAb003LH2L1b (antibody, human IgG1, V domains shown, Humanized F2.154.1; VH H2 + VL L1b; expressed as human IgG1) VH: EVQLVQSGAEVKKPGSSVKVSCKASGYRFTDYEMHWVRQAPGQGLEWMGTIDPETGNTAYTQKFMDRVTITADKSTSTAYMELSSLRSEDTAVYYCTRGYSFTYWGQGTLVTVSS VL: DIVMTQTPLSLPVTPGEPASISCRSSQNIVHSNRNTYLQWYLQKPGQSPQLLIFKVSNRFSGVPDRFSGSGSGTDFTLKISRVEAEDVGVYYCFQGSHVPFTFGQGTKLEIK ?
2.44

These measurements were taken from patent US20260116991A1.
